- Assay remarks: Drug excretion in cynomolgus monkey urine treated with [14C]brivanib alaninate at 10 mg/kg, po administered as single dose via gavage by HPLC analysis
- Assay type: ADME, organism-based, Macaca fascicularis
- Condition parameters: in vivo
Measured endpoint: Compound recovery

>>> assay_result("Cc1c(OS(=O)(=O)O)cn2ncnc(Oc3ccc4[nH]c(C(=O)O)cc4c3F)c12")
"0.3%"
>>> assay_result("Cc1c(O)cn2ncnc(Oc3ccc4[nH]c(C(=O)O)cc4c3F)c12")
"metabolite_not_detected"
>>> assay_result("Cc1c(O)cn2ncnc(Oc3ccc4[nH]c(CO)cc4c3F)c12")
"metabolite_not_detected"
>>> assay_result("Cc1cc2c(F)c(Oc3ncnn4cc(O)c(C)c34)ccc2[nH]1")
"metabolite_not_detected"
>>> assay_result("CC(=O)COc1cn2ncnc(Oc3ccc4[nH]c(C)cc4c3F)c2c1C")
"metabolite_not_detected"

Query: Looking for the measured Compound recovery of `Cc1c(OS(=O)(=O)O)cn2ncnc(Oc3ccc4[nH]c(CO)cc4c3F)c12` , can you help?
Reply: metabolite_not_detected

* * *

- Test system: Plasma
- Assay remarks: Drug level in human plasma assessed as compound formation treated with [14C]brivanib alaninate at 800 mg, po administered as single dose via gavage measured after 8 hrs by HPLC analysis
- Type: ADME, organism-based
- Condition parameters: in vivo
Measured endpoint: Compound recovery

>>> assay_result("Cc1c(OC[C@@H](C)O)cn2ncnc(Oc3ccc4[nH]c(CO)cc4c3F)c12")
"metabolite_not_detected"
>>> assay_result("Cc1cc2c(F)c(Oc3ncnn4cc(OCC(=O)O)c(C)c34)ccc2[nH]1")
"metabolite_not_detected"
>>> assay_result("Cc1cc2c(F)c(Oc3ncnn4cc(O)c(C)c34)ccc2[nH]1")
"metabolite_not_detected"

* * *

- Test system: Plasma
- Assay remarks: Drug level in human plasma assessed as compound formation treated with [14C]brivanib alaninate at 800 mg, po administered as single dose via gavage measured after 2 hrs by HPLC analysis
- Format: ADME, organism-based
- Condition parameters: in vivo
Measured endpoint: Compound recovery

>>> assay_result("Cc1cc2c(F)c(Oc3ncnn4cc(O)c(C)c34)ccc2[nH]1")
"metabolite_not_detected"
>>> assay_result("Cc1c(OC[C@@H](C)O)cn2ncnc(Oc3ccc4[nH]c(CO)cc4c3F)c12")
"metabolite_not_detected"
>>> assay_result("Cc1cc2c(F)c(Oc3ncnn4cc(OCC(=O)O)c(C)c34)ccc2[nH]1")
"metabolite_not_detected"

* * *

- Assay remarks: Drug excretion in bile duct-cannulated rat bile treated with [14C]brivanib alaninate at 100 mg/kg, po administered as single dose via gavage by HPLC analysis
- Assay type: ADME, organism-based
- Condition parameters: in vivo
Measured endpoint: Compound recovery

>>> assay_result("Cc1cc2c(F)c(Oc3ncnn4cc(OC[C@@H](C)O)c(C)c34)ccc2[nH]1")
"metabolite_not_detected"
>>> assay_result("Cc1c(OS(=O)(=O)O)cn2ncnc(Oc3ccc4[nH]c(CO)cc4c3F)c12")
"metabolite_not_detected"
>>> assay_result("Cc1c(O)cn2ncnc(Oc3ccc4[nH]c(CO)cc4c3F)c12")
"metabolite_not_detected"

* * *

- Test system: Plasma
- Assay remarks: Drug level in human plasma assessed as compound formation treated with [14C]brivanib alaninate at 800 mg, po administered as single dose via gavage measured after 12 hrs by HPLC analysis
- Format: ADME, organism-based
- Condition parameters: in vivo
Measured endpoint: Compound recovery

>>> assay_result("Cc1cc2c(F)c(Oc3ncnn4cc(O)c(C)c34)ccc2[nH]1")
"metabolite_not_detected"
>>> assay_result("Cc1cc2c(F)c(Oc3ncnn4cc(OCC(=O)O)c(C)c34)ccc2[nH]1")
"metabolite_not_detected"
>>> assay_result("Cc1cc2c(F)c(Oc3ncnn4cc(OC[C@@H](C)O[C@@H]5O[C@H](C(=O)O)[C@@H](O)[C@H](O)[C@H]5O)c(C)c34)ccc2[nH]1")
"metabolite_not_detected"
>>> assay_result("Cc1c(OC[C@@H](C)O)cn2ncnc(Oc3ccc4[nH]c(CO)cc4c3F)c12")
"metabolite_not_detected"

Origin of values: ChEMBL document CHEMBL3526109
